System: 5-hydroxytryptamine receptor 5A (Homo sapiens) | Read-out: AC50; also: assay procedure not described here
Sequence (P47898 whole entry): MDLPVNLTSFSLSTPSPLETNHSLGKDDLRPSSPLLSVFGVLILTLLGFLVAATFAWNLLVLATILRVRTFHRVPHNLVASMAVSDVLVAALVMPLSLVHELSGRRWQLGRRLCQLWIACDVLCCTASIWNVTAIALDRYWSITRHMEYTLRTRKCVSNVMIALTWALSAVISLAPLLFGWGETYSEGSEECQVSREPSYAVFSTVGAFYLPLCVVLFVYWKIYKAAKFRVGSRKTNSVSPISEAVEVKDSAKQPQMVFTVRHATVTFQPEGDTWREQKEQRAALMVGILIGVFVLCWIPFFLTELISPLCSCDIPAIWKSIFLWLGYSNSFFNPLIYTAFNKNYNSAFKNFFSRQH

[ask] # lookup: AC50 of Cc1c(C(=O)NN2CCCCC2)nn(-c2ccc(Cl)cc2Cl)c1-c1ccc(Cl)cc1 [RIMONABANT]
[reply] > 10 µM

[ask] What do we get for CN(C)CCC(c1ccc(Cl)cc1)c1ccccn1 (stereo not given) [CHLORPHENIRAMINE] ?
[reply] > 10 µM

[ask] Let us now turn to N#Cc1ccc([C@H]2CCc3cncn32)c(F)c1 [OSILODROSTAT]
[reply] > 10 µM

[ask] Next: CCCCCNC(=N)N/N=C/c1c[nH]c2ccc(OC)cc12 [TEGASEROD]
[reply] 0.19 µM

[ask] And the next one, CCOc1ccccc1OCC1CNCCO1 (stereo not given) [VILOXAZINE] ?
[reply] > 10 µM

----------
What AC50 was measured for each of the following?
Target: Melanocortin receptor 4 (Homo sapiens, UniProt P32245); also: assay procedure not described here
Sequence (P32245 whole entry): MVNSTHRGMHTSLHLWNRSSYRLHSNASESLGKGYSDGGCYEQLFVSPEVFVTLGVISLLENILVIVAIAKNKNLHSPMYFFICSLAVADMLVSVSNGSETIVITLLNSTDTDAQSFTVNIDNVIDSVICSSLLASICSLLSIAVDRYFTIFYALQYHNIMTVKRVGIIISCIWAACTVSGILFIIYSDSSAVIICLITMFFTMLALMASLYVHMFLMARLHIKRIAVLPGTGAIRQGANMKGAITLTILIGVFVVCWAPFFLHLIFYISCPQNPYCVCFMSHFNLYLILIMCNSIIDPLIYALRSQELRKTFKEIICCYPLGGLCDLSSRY

[ask] Reported AC50, molecule Clc1ccc(C(c2ccccc2Cl)C(Cl)Cl)cc1 (centres undefined) [MITOTANE] : ____
[reply] > 10 µM

[ask] // same read-out, input: CC(C)(C)c1cc(C(C)(C)C)c(NC(=O)c2c[nH]c3ccccc3c2=O)cc1O [IVACAFTOR]
[reply] 25.6 µM

[ask] Next up: Cc1nnc2n1-c1ccc(Cl)cc1C(c1ccccc1Cl)=NC2 [TRIAZOLAM]
[reply] > 30 µM

[ask] Also check Cc1ccc(S(=O)(=O)NC(=O)NN2CC3CCCC3C2)cc1 (centres undefined) [GLICLAZIDE]
[reply] > 10 µM

----------
A short record of AC50 observed with Adenosine receptor A3 (Homo sapiens) follows.
Sequence (P0DMS8 whole entry): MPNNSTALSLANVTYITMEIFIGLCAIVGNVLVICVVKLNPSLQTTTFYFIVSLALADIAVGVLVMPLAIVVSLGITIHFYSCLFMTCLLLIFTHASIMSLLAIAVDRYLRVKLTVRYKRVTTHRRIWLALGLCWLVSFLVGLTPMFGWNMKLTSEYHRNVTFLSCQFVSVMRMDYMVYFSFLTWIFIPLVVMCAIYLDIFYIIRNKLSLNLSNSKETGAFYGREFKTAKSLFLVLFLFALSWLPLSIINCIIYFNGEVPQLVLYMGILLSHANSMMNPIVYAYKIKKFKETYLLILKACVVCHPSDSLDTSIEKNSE

[ask] Query AC50 on Adenosine receptor A3 (Homo sapiens) for NC(=O)C[C@H](N)C(=O)O
[reply] > 30 µM

[ask] Next compound up: COc1ccc(C(=O)Nc2ccccc2CCC2CCCCN2C)cc1 (stereo not drawn) [ENCAINIDE]
[reply] > 30 µM

[ask] Thanks! And CC(C)(C)NCC(O)COc1cccc2c1SCCC2 (stereo not drawn) ?
[reply] > 30 µM

[ask] Note, next up: CC[C@]1(O)C[C@H]2CN(CCc3c([nH]c4ccccc34)[C@@](C(=O)OC)(c3cc4c(cc3OC)N(C=O)[C@H]3[C@@](O)(C(=O)OC)[C@H](OC(C)=O)[C@]5(CC)C=CCN6CC[C@]43[C@@H]65)C2)C1
[reply] > 30 µM

[ask] How about CCCCOC(=O)C(=O)[C@H]1[C@H](C)C[C@H]2[C@@H]3C[C@H](F)C4=CC(=O)C=C[C@]4(C)[C@H]3[C@@H](O)C[C@@]21C ?
[reply] 7.82 µM

[ask] // query: Oc1c(Cl)cc(Cl)c2cccnc12
[reply] > 30 µM

[ask] Another compound to check: CC1=C(/C=C/C(C)=C/C=C/C(C)=C/C=C/C=C(C)/C=C/C=C(C)/C=C/C2=C(C)CCCC2(C)C)C(C)(C)CCC1
[reply] > 30 µM

[ask] Do the same for CS(=O)(=O)c1ccc(C2=C(c3ccccc3)C(=O)OC2)cc1 please
[reply] 18.5 µM

[ask] Okay, and C[S+](CC[C@H](N)C(=O)[O-])C[C@H]1O[C@@H](n2cnc3c(N)ncnc32)[C@H](O)[C@@H]1O (stereo partly drawn) ?
[reply] 0.174 µM

[ask] Field entry: CCOC(=O)[C@H](CCc1ccccc1)N[C@@H](C)C(=O)N1CC2(C[C@H]1C(=O)O)SCCS2
[reply] > 30 µM

[ask] Let us now turn to COc1cc(NC(C)CCCN)c2ncccc2c1 (stereo not drawn)
[reply] 14.7 µM

[ask] Repeat for the following compound: CCOc1ccccc1C(N)=O [ETHENZAMIDE]
[reply] > 30 µM

[ask] Repeat with O=C(O)c1ccccc1C(=O)Nc1ccc(S(=O)(=O)Nc2nccs2)cc1
[reply] > 30 µM

[ask] Entry CC(=O)Nc1ccc(O)cc1 please
[reply] > 30 µM

[ask] Same again, this time with COc1cc([C@@H]2c3cc4c(cc3[C@H](O)[C@H]3COC(=O)[C@H]23)OCO4)cc(OC)c1OC
[reply] > 30 µM

[ask] Param item: CN(C)CCN1C(=O)c2ccccc2N(C)c2ccccc21 [DIBENZEPIN]
[reply] > 30 µM

[ask] Field entry: COc1ccc2c(c1)N(C[C@H](C)CN(C)C)c1ccccc1S2
[reply] > 30 µM

[ask] Note, next up: CC(C)(S)[C@@H](N)C(=O)O
[reply] > 30 µM
